- Test system: Wnt signaling pathway (Top-Flash reporter gene)
- PROTOCOL_DETAILS: Top-Flash Wnt reporter gene assay in HEK293T cells with Wnt3a conditioned medium
- Format: cell-based
- PROTOCOL_CONDITIONS: Homo sapiens, HEK-293T, 6 h, Table 7 (second), derivatives modified on 7-hydroxyl of S-3; HEK293T, Wnt3a conditioned medium, 6 h; read-out: IC50 (μM), inhibitory activity on the Wnt signaling pathway
RECORDED_METRIC: IC50 (µM)

Example results:
| MOLECULE | UNIT_OF_MEASUREMENT | IC50 |
| --- | --- | --- |
| C=C1C(=O)C23CC[C@H]1CC2[C@@]12CCC[C@@](C)(COC1=O)C2C[C@H]3OC(=O)c1ccc(C(F)(F)F)cc1 (stereo partly shown) | µM | 19 |
| C=C1C(=O)[C@]23CC[C@H]1CC2[C@@]12CCC[C@@](C)(COC1=O)C2C[C@H]3OC(=O)CCl (stereo partly shown) | µM | 17.9 |

(P) C=C1C(=O)[C@]23CC[C@H]1CC2[C@@]12CCC[C@@](C)(COC1=O)C2C[C@H]3O (stereo partly shown)
(Q) C=CC(=O)O[C@@H]1CC2[C@@]3(C)CCC[C@@]2(C(=O)OC3)C2C[C@@H]3CCC21C(=O)C3=C (stereo partly shown)
Task item: In terms of reported IC50, does P or Q have the smaller number? Choose, then provide that item's label.
Reply: P

====

- Test system: Wnt signaling pathway (Top-Flash reporter gene)
- PROTOCOL_DETAILS: Top-Flash Wnt reporter gene assay in HEK293T cells with Wnt3a conditioned medium
- Assay type: cell-based
- PROTOCOL_CONDITIONS: Homo sapiens, HEK-293T, 6 h, Table 7 (second), derivatives modified on 7-hydroxyl of S-3; HEK293T, Wnt3a conditioned medium, 6 h; read-out: IC50 (μM), inhibitory activity on the Wnt signaling pathway
RECORDED_METRIC: IC50 (µM)

(I) C=C1C(=O)C23CC[C@H]1CC2[C@@]12CCC[C@@](C)(COC1=O)C2C[C@H]3OC(=O)CCCl (some centres unmarked)
(II) C=C1C(=O)C23CC[C@H]1CC2[C@@]12CCC[C@@](C)(COC1=O)C2C[C@H]3OC(=O)c1ccc([N+](=O)[O-])cc1 (some centres unmarked)
Task item: Of I and II , whose reported IC50 is the larger number? Lab note: record the label of whichever item you select.
Reply: I
(I: 20.2 µM, II: 10.7 µM)

(I) C=C1C(=O)C23CC[C@H]1CC2[C@@]12CCC[C@@](C)(COC1=O)C2C[C@H]3OC(=O)c1ccc(OC)cc1 (some centres unmarked)
(II) C=C1C(=O)[C@]23CC[C@H]1CC2[C@@]12CCC[C@@](C)(COC1=O)C2C[C@H]3OC(=O)CBr (some centres unmarked)
Task item: // compare measured IC50, left I , right II , return larger Returns: label corresponding to the selected item.
Reply: II
(II: 28.8 µM, I: 18.6 µM)

(P) C=C1C(=O)C23CC[C@H]1CC2[C@@]12CCC[C@@](C)(COC1=O)C2C[C@H]3OC(=O)/C=C/c1ccccc1 (some centres unmarked)
(Q) C=C1C(=O)C23CC[C@H]1CC2[C@@]12CCC[C@@](C)(COC1=O)C2C[C@H]3OC(=O)[C@@H](C)Cl (some centres unmarked)
Task item: Could you check which of P and Q has a smaller value for IC50? Pick one; state its label.
Reply: P
(P: 18.6 µM, Q: 28.3 µM)
